Data provenance is ChEMBL document CHEMBL3526088.

# Test system: Liver microsome
# experiment summary: Drug metabolism in human liver microsomes assessed as R-138727 formation at 1.6 to 200 uM after 15 mins incubation
# Format: ADME
# conditions used: 0.25 h
parameter measured: Km (µM)
Answers are plain numbers, in µM.

Answer with reported Km of O=C1C=C2CN(C(C(=O)C3CC3)c3ccccc3F)CCC2S1 (stereo unspecified)
26

----------
# experiment summary: Drug metabolism in human intestinal microsomes assessed as R-138727 formation at 1.6 to 200 uM after 15 mins incubation
# Format: ADME, Intestine, Microsome
# conditions used: 0.25 h
parameter measured: Km (µM)
Give bare numbers, in µM.

Answer with reported Km of O=C1C=C2CN(C(C(=O)C3CC3)c3ccccc3F)CCC2S1 (stereo unspecified)
80.4

----------
# experiment summary: Drug metabolism in dog intestinal microsomes assessed as R-138727 formation at 1.6 to 200 uM after 15 mins incubation
# Assay type: ADME, Canis lupus familiaris, Intestine, Microsome
# conditions used: 0.25 h
parameter measured: Km (µM)
Give bare numbers, in µM.

Answer with reported Km of O=C1C=C2CN(C(C(=O)C3CC3)c3ccccc3F)CCC2S1 (stereo unspecified)
42.7
